Value source: the supplement of paper PMC6897291

# Test system: U-2932
# methodNotes: growth inhibition by drug plus 177Lu-lilotomab satetraxetan (1 - RLU/untreated control) (fraction); higher = stronger inhibition
# appliedConditions: 1000 nM; time (day): 6; 177Lu-lilotomab satetraxetan 1 ug/ml
Quick reference for growth inhibition by drug plus 177Lu-lilotomab satetraxetan among some compounds
When you answer, write just the number.

Below, 4 compounds whose answers are already recorded.
{"compound": "Cn1cnc(N)c2ncnc1-2", "value": 0.207}
{"compound": "O=C(Cc1ccc(-c2ccc(OCCN3CCOCC3)cc2)cn1)NCc1ccccc1", "value": 0.983}
{"compound": "CCC(C)(C)C(=O)O[C@H]1C[C@@H](C)C=C2C=C[C@H](C)[C@H](CC[C@@H]3C[C@@H](O)CC(=O)O3)[C@H]21 [Simvastatin (Zocor)]", "value": 0.0898}
{"compound": "N#Cc1ccc(COC[C@H]2O[C@@H](n3c(NCc4ccc(Cl)c(Cl)c4)nc4c(N)ncnc43)[C@H](O)[C@@H]2O)cc1", "value": 0.165}

Would you kindly look at the next entry?
GET /value?item= O=C(O)CCCc1ccccc1 [4-Phenylbutyrate] &field=growth inhibition by drug plus 177Lu-lilotomab satetraxetan returns 0.195
